Biological target: hTRPM8 (Homo sapiens)
Construct: expressed in transfected cells; host or cells: CHO-KJ cells [sic]
Sequence (Q7Z2W7 whole entry): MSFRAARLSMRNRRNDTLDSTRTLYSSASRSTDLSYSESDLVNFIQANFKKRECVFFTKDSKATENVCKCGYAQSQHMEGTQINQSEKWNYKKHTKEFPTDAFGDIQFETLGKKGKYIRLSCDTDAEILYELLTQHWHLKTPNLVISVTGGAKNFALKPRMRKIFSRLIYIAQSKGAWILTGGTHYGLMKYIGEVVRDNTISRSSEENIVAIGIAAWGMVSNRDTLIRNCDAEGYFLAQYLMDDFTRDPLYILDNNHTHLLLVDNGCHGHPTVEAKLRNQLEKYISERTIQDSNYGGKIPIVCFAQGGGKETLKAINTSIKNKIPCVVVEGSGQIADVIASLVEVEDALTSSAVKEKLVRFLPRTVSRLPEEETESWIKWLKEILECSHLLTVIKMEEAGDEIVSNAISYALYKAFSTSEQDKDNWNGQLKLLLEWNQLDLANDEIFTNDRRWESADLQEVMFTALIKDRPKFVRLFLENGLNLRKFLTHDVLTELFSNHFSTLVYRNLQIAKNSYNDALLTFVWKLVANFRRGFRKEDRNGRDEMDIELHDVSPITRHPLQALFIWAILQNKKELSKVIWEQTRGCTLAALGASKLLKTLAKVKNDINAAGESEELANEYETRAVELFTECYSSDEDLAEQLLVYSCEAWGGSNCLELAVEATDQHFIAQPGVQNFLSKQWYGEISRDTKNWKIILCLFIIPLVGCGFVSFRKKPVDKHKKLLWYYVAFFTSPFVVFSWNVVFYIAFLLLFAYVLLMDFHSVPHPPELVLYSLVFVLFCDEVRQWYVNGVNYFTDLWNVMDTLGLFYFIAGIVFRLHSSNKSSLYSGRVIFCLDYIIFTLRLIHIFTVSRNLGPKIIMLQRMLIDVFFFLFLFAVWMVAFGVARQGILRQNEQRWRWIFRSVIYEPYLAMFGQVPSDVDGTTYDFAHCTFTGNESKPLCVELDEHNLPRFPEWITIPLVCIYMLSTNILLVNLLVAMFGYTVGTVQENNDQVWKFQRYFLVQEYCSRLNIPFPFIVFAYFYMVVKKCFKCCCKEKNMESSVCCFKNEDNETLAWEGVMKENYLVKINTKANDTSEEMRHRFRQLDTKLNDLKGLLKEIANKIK
Test: Secondary in vitro screening on hTRPM8 at 5 μM versus WS-3
Type: cell-based
Details: WS3 as reference compound
measured-attribute: activation at 5 µM (%)
Only the number, expressed in %, is required.

Before answering, review these 2 worked examples.
CC(C)[C@@H]1CC[C@@H](C)CC1(COC(=O)CCC(=O)O)COC(=O)CCC(=O)O
-2
CC1OCC2(CCCC(C)(C)C2)CO1 (centres unmarked)
3

# molecule CC1CC(C)(C)CC2(COC(C)(C)OC2)C1 (centres unmarked) ; its activation at 5 µM = 1

The molecule identified as CCC1(C)OCC2(CO1)C[C@H](C)CC[C@H]2C(C)C (some centres unmarked) registered its activation at 5 µM at 1

According to the records, this molecule CC(C)[C@@H]1CC[C@@H](C)CC12COC(c1ccccc1)OC2 (some centres unmarked) displays activation at 5 µM of 3

Looking up CC1CC(C)(C)CC2(COC(C)OC2)C1 (centres unmarked) , I found its activation at 5 µM recorded as 3

For reference, reported activation at 5 µM for CC(C)[C@@H]1CC[C@@H](C)CC1(CO)C(=O)O (some centres unmarked) stands at 16

activation at 5 µM in this record for `CC(C)[C@@H]1CC[C@@H](C)CC1(C=O)C=O` : 6

GET /value?item= CC(C)[C@@H]1CC[C@@H](C)CC1(CO)COCc1ccccc1 (some centres unmarked) &field=activation at 5 µM returns 8

activation at 5 µM reading for `CC(C)[C@@H]1CC[C@@H](C)C[C@H]1C(CO)CO` : 65

Reported activation at 5 µM of CCC(C)C1CCCCC1(CO)CO (centres unmarked) : 40

Measured activation at 5 µM of CC1OCC2(CO1)CC(C)(C)CCC2C(C)C (centres unmarked) : 1

For this molecule ( CCC(C)C1OCC2(CO1)C[C@H](C)CC[C@H]2C(C)C (some centres unmarked) ), measured activation at 5 µM is -1

Form field activation at 5 µM, entry CCCC1OCC2(CO1)C[C@H](C)CC[C@H]2C(C)C (some centres unmarked) : -1

The reported activation at 5 µM of the molecule CC(C)[C@@H]1CC[C@@H](C)CC1(C(C)O)C(C)O (some centres unmarked) was 21

For reference, reported activation at 5 µM for CC(C)[C@@H]1CC[C@@H](C)CC12COC(c1cccs1)OC2 (some centres unmarked) stands at 3

Quick note, activation at 5 µM for CC1OCC2(CO1)C[C@H](C)CC[C@H]2C(C)C (some centres unmarked) landed at 3

// activation at 5 µM value for CCOC(=O)C1OCC2(CO1)C[C@H](C)CC[C@H]2C(C)C (some centres unmarked) : 5

The reported value for CC1CC(C)(C)CC(CO)(CO)C1 (centres unmarked) in terms of activation at 5 µM is 10

Just so you know, measured activation at 5 µM for CC(C)C1OCC2(CO1)C[C@H](C)CC[C@H]2C(C)C (some centres unmarked) came out at -6

The recorded activation at 5 µM for entry CC(C)[C@@H]1CC[C@@H](C)CC12COC1(C[C@H](C)CC[C@H]1C(C)C)OC2 (some centres unmarked) equals 0

Recorded activation at 5 µM (molecule CSCCC1OCC2(CO1)C[C@H](C)CC[C@H]2C(C)C (some centres unmarked) ): 3

The molecule listed as CC(C)C1CCC(C)(C)CC1(CO)CO (single isomer, unassigned) has a reported activation at 5 µM of 71

The molecule listed as `COCC1(COC)C[C@H](C)CC[C@H]1C(C)C` has a reported activation at 5 µM of 1

# molecule `CC(C)[C@@H]1CC[C@@H](C)CC1(CO)CO` ; its activation at 5 µM = 99

Per the records, this molecule ( `CC1(C)CC(C)(C)CC(CO)(CO)C1` ) has activation at 5 µM equal to 8

Looking up CC(=O)OCC1(CO)C[C@H](C)CC[C@H]1C(C)C (some centres unmarked) , I see its activation at 5 µM listed as 4

Sure, the documented activation at 5 µM for COc1cc(C2OCC3(CO2)C[C@H](C)CC[C@H]3C(C)C)ccc1O (some centres unmarked) is 16

The molecule identified as CC(C)[C@@H]1CC[C@@H](C)CC12COC(c1ccccn1)OC2 (some centres unmarked) registered its activation at 5 µM at 4
